Target: Nek2 (Homo sapiens, UniProt P51955)
Construct: purchased Invitrogen
Sequence (P51955 1-445): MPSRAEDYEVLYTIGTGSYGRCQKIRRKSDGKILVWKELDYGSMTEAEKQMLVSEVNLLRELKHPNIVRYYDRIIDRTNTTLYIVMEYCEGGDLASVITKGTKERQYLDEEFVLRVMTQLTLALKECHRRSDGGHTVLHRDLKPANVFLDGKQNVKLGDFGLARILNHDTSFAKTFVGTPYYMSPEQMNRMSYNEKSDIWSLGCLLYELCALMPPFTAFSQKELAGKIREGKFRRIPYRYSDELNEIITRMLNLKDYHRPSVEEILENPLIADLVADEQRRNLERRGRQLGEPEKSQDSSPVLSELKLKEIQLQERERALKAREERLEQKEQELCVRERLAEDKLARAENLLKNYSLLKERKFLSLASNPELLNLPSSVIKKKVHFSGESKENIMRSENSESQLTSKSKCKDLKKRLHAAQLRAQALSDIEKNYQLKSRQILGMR
Assay: Effect of pre-incubation of Nek2 with inhibitor on IC50 (time-dependence)
Assay type: biochemical
Settings: 10 min after inhibitor addition
pIC50: −log10 of the molar value.
outcomeMeasure: pIC50

>>> obsvalue("CN(C)/C=C/c1nc(Nc2ccccc2)nc2[nH]cnc12")
5.80
